Reported Activity is given for each of the following compounds.
System: Rattus norvegicus
Test: Anti-stress activity in Sprague-Dawley rat assessed as change in acute stress-induced adrenal gland weight at 40 mg/kg, po qd for 3 days prior to acute stress induction measured after 150 mins (reference value: 10.2 +/- 0.84 mg/kg)
Format: functional
Please give a number only; it is taken to be in mg/kg.

Enquiry: Note down Activity recorded for C[C@@H]1O[C@@H](OC[C@H]2O[C@@H](Oc3ccc(-c4oc5cc(O)cc(O)c5c(=O)c4O)cc3)[C@H](O)[C@@H](O)[C@@H]2O)[C@H](O)[C@H](O)[C@H]1O
Return: 8.47

Enquiry: Entry C[C@@H]1O[C@@H](OC[C@H]2O[C@@H](Oc3ccc(-c4oc5cc(O)cc(O)c5c(=O)c4O)cc3)[C@H](O)[C@@H](O)[C@@H]2O)[C@H](O[C@@H]2O[C@H](CO)[C@@H](O)[C@H](O)[C@H]2O)[C@H](O)[C@H]1O [EVOLVOSIDE C] needs its Activity filled in; supply it.
Return: 7.11

Enquiry: Report Activity for O=c1cc(-c2ccc(O)cc2)oc2c([C@@H]3O[C@H](CO)[C@@H](O)[C@H](O)[C@H]3O)c(O)cc(O)c12
Return: 9.78

Enquiry: For the compound COc1cc(O)c2c(=O)c(O)c(-c3ccc(O[C@@H]4O[C@H](CO[C@@H]5O[C@@H](C)[C@H](O)[C@@H](O)[C@H]5O[C@@H]5O[C@H](CO)[C@@H](O)[C@H](O)[C@H]5O)[C@@H](O)[C@H](O)[C@H]4O)cc3)oc2c1 [EVOLVOSIDE D] , give its measured Activity value.
Return: 8.23

Enquiry: # return recorded Activity for entry O=c1c(O)c(-c2ccc(O[C@@H]3O[C@H](CO)[C@@H](O)[C@H](O)[C@H]3O[C@@H]3O[C@H](CO)[C@@H](O)[C@H](O)[C@H]3O)cc2)oc2cc(O)cc(O)c12
Return: 10.91

Each recorded value in this set is attributed to ChEMBL document CHEMBL2331217.
